- condition.details: buffer; pH 7.4; 200.0 µM
Output schema: class label derived from solubility kinetic. Mapping: range A: < 6 µg/mL; range B: ≥ 6 µg/mL and < 20 µg/mL; range C: ≥ 20 µg/mL

For orientation, consider the following solved cases.
{"compound": "NC1=NC(=O)/C(=C/c2ccccc2OCC(=O)Nc2ccc(F)cc2)S1", "cat": "range A"}
{"compound": "CC(C)Cc1ccc(/C=C/C(=O)N2CCCCC2)cc1", "cat": "range B"}

Query: Place this compound in its band: COc1ccc(CC(=O)NCc2csc(-c3cccs3)n2)cc1OC
Result: range C

Query: Pick a category. Item: Cc1cccc(OCCCCCN2CCOCC2)c1C
Result: range C

Query: Which bin should I file Cc1cc(-c2nc(-c3ccncc3)no2)ccc1[N+](=O)[O-] under?
Result: range A

====

- condition.details: buffer; pH 7.4; 200.0 µM
# solubility kinetic per entry

Query: So what does the record say about solubility kinetic for Cc1cc(C(=O)OCC(=O)Nc2cccc(S(N)(=O)=O)c2)c(C)o1 ?
Result: > 52.9 µg/mL

Query: Any idea what solubility kinetic was measured for CCC1=C(C)CN(C(=O)NCCc2ccc(S(=O)(=O)NC(=O)NC3CCC(C)CC3)cc2)C1=O (centres undefined) ?
Result: > 73.6 µg/mL

Query: What value of solubility kinetic has been reported for the following compound? O=[N+]([O-])c1ccc(NCCCN2CCOCC2)nc1
Result: > 39.9 µg/mL

Query: What solubility kinetic value was documented for this compound, CC(NC(N)=O)C(=O)NCC(=O)OCc1ccccc1 (centres undefined) ?
Result: > 41.9 µg/mL

====

- condition.details: buffer; pH 7.4; 200.0 µM
attribute.measured: solubility kinetic

{"mol": "FC(F)(F)c1cccc(OCc2noc(-c3ccsc3)n2)c1", "observed.value": "< 0.3 µg/mL"}
{"mol": "CSc1sc(C(=O)N(C)C)cc1S(=O)(=O)C(C)C", "observed.value": "> 46.1 µg/mL"}

Query: Would you mind telling me what solubility kinetic value was observed for COc1ccc(CCNC(=O)COC(=O)c2ncc(Cl)c(Cl)c2Cl)cc1OC ?
Result: > 67.2 µg/mL

====

- condition.details: buffer; pH 7.4; 200.0 µM
attribute.measured: solubility kinetic

Query: Reported solubility kinetic for Cc1cccc(N2CCN(C(=O)CNC(=O)Cc3ccccc3)CC2)c1C : what is it?
Result: > 54.8 µg/mL

Query: Any idea what its solubility kinetic is? The compound is COc1ccc(OC)c(NC(=O)Nc2cccnc2)c1
Result: > 41 µg/mL

Query: What value of solubility kinetic has been recorded for this entry: CC(C)C(C(=O)Nc1ccncc1)c1ccc(Cl)cc1 (stereo not given)
Result: > 43.3 µg/mL

====

- condition.details: buffer; pH 7.4; 200.0 µM
attribute.measured: solubility kinetic

{"mol": "CN(CC(=O)Nc1c(Cl)cccc1Cl)C(=O)c1cccn1C", "observed.value": "> 51 µg/mL"}

Query: So what does the record say about solubility kinetic for NS(=O)(=O)c1ccc(CNC(=O)Cc2ccccc2F)cc1 ?
Result: > 48.4 µg/mL

Query: So what does the record say about solubility kinetic for COc1ccccc1CNC(=O)CSc1nc(C)cs1 ?
Result: > 46.3 µg/mL

====

Listed compounds paired with reported solubility kinetic
- condition.details: buffer; pH 7.4; 200.0 µM

{"mol": "O=C(NC(=S)Nc1ccc(Cl)c(C(=O)O)c1)c1ccco1", "solubility kinetic": "> 48.7 µg/mL"}
{"mol": "Cc1cc(/C(N)=N/OC(=O)c2ccccc2Cl)no1", "solubility kinetic": "> 42 µg/mL"}

Query: Entry Cc1ccc(Oc2ncccc2NC(=O)CCCC(=O)O)c2c1CCC2 : reported solubility kinetic = ?
Result: > 53.2 µg/mL
